Data provenance is patent US8815828B2.

# System: MCF7 breast cancer cells
# assay-overview: Sulforhodamine B (SRB) colorimetric cytotoxicity assay, MCF7
# condition-summary: Homo sapiens, MCF7, 48 h, read-out: IC50 (cytotoxicity), agent alone
property-name: IC50 (µM)
Form entry: value (µM) — number only.

Measured IC50, Cn1nnc2c(C(N)=O)ncn2c1=O [TMZ, Temozolomide] : 303

* * *

# Test system: MDA-MB-231 breast cancer cells
# assay-overview: Sulforhodamine B (SRB) colorimetric cytotoxicity assay, MDA-MB-231
# condition-summary: read-out: IC50 (cytotoxicity), agent alone; MDA-MB-231 cells; 48 hours
property-name: IC50

Measured IC50, `Nc1nc(OCc2ccccc2)c2nc[nH]c2n1` : ~77 µM
